tested on: Human diploid fibroblast BJ; assay: In vitro cytotoxic activity (MTT); format: cell-based; settings: 72 hours incubation; concentration causing 20% decrease in mitochondrial dehydrogenase activity
MEASURE_NAME: GI20

>>> df
                                   compound             target_or_system       result
0  CSc1nc2c(NCc3ccco3)ncnc2n1C1CCCCO1 (stereo not shown)  Human diploid fibroblast BJ  >100 µmol/L
1  COc1cccc(CNc2ncnc3c2nc(Br)n3C2CCCCO2)c1 (stereo not shown)  Human diploid fibroblast BJ  >100 µmol/L
2  Oc1cccc(CNc2ncnc3c2nc(Br)n3C2CCCCO2)c1 (stereo not shown)  Human diploid fibroblast BJ  >100 µmol/L
3  COc1nc2c(NCC=C(C)C)ncnc2n1C1CCCO1 (stereo not shown)  Human diploid fibroblast BJ  >100 µmol/L
4  C/C(=C\CNc1ncnc2c1nc(Cl)n2C1CCCO1)CO (stereo not shown)  Human diploid fibroblast BJ  >100 µmol/L
5  Fc1cccc(CNc2ncnc3c2nc(Cl)n3C2CCCCO2)c1 (stereo not shown)  Human diploid fibroblast BJ  >200 µmol/L
6  COc1cccc(CNc2ncnc3c2nc(OC)n3C2CCCCO2)c1 (stereo not shown)  Human diploid fibroblast BJ  >100 µmol/L
7  COc1nc2c(NCC=C(C)CO)ncnc2n1C1CCCO1 (stereo not shown)  Human diploid fibroblast BJ  >100 µmol/L
8  CC(C)=CCNc1ncnc2c1nc(Br)n2C1CCCCO1 (stereo not shown)  Human diploid fibroblast BJ  >100 µmol/L
9  CSc1nc2c(NCc3ccco3)ncnc2n1C1CCCO1 (stereo not shown)  Human diploid fibroblast BJ  >100 µmol/L

* * *

system: human diploid fibroblasts (HDF cells; HDF25, HDF45, HDF80); assay: Inhibition of human cell aging: senescent cells by beta-galactosidase staining; format: cell-based; settings: human diploid fibroblasts passage 45, beta-galactosidase staining
Form field: SENESCENT CELLS (%) HDF45 (one value per entry).
MEASURE_NAME: SENESCENT CELLS (%) HDF45

                                    molecule  result_number
 0  Oc1ccc(CNc2ncnc3c2nc(I)n3C2CCCCO2)cc1O (centres unmarked) [Compound 54]              5
 1  COc1ccc(CNc2ncnc3c2nc(I)n3C2CCCCO2)cc1OC (centres unmarked) [Compound 56]              5
 2  Brc1nc2c(NCc3ccco3)ncnc2n1C1CCCO1 (centres unmarked) [Compound 72]              4
 3  Fc1ccc(CNc2ncnc3c2nc(Cl)n3C2CCCO2)cc1F (centres unmarked) [Compound 67]              6
 4  Fc1ccc(CNc2ncnc3c2nc(Br)n3C2CCCCO2)cc1F (centres unmarked) [Compound 27]              4
 5  Oc1cccc(CNc2ncnc3c2nc(I)n3C2CCCCO2)c1 (centres unmarked) [Compound 53]              5
 6  COc1ccc(CNc2ncnc3c2nc(Br)n3C2CCCCO2)cc1OC (centres unmarked) [Compound 41]              6
 7  C/C(=C/CNc1ncnc2c1nc(Br)n2C1CCCO1)CO (centres unmarked) [Compound 74]              5
 8  Fc1ccc(CNc2ncnc3c2nc(I)n3C2CCCCO2)cc1F (centres unmarked) [Compound 55]              4
 9  C/C(=C\CNc1ncnc2c1nc(Br)n2C1CCCCO1)CO (centres unmarked) [Compound 24]              5
10  C/C(=C\CNc1ncnc2c1nc(I)n2C1CCCCO1)CO (centres unmarked) [Compound 48]              4
11  COc1cccc(CNc2ncnc3c2nc(I)n3C2CCCCO2)c1 (centres unmarked) [Compound 52]              6
12  COc1cccc(CNc2ncnc3c2nc(Cl)n3C2CCCO2)c1 (centres unmarked) [Compound 69]              4
13  Fc1cccc(CNc2ncnc3c2nc(I)n3C2CCCCO2)c1 (centres unmarked) [Compound 50]              4
14  Oc1ccc(CNc2ncnc3c2nc(Br)n3C2CCCCO2)cc1O (centres unmarked) [Compound 39]              4
15  Brc1nc2c(NCc3ccco3)ncnc2n1C1CCCCO1 (centres unmarked) [Compound 21]              5
16  Oc1cccc(CNc2ncnc3c2nc(I)n3C2CCCO2)c1 (centres unmarked) [Compound 76]              4
17  Fc1cccc(CNc2ncnc3c2nc(Cl)n3C2CCCO2)c1 (centres unmarked) [Compound 71]              6
18  C/C(=C\CNc1ncnc2c1nc(Cl)n2C1CCCO1)CO (centres unmarked) [Compound 64]              4
19  c1coc(CNc2ncnc3[nH]cnc23)c1 [kinetin, reference compound]              5
